# target-or-system: UniProt P35222
# Sequence (P35222 1-781): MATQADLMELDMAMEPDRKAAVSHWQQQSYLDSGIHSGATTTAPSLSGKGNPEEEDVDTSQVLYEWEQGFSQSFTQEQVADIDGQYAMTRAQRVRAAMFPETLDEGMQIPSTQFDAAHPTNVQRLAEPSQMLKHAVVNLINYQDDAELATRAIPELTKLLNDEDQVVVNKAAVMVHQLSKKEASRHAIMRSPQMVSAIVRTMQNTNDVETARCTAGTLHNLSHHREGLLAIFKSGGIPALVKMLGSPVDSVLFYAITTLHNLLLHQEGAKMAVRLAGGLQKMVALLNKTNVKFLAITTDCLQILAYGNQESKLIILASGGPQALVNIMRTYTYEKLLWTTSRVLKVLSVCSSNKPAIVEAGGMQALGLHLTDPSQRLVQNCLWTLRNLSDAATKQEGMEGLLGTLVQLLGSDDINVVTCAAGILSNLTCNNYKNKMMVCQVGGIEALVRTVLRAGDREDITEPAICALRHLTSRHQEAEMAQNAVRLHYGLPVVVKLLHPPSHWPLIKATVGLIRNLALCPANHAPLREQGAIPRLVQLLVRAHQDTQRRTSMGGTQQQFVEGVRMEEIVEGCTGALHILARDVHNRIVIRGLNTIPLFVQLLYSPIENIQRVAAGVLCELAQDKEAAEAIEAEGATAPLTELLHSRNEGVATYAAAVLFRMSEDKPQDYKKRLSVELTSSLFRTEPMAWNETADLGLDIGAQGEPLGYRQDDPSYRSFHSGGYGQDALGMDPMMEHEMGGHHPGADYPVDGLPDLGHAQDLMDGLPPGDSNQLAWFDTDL
# method: Gel-based ABPP with CTNNB1 pure protein (IA-Rhodamine displacement)
# Assay type: binding
# condition-label: displacement of cysteine-reactive fluorescent probe
# Procedure: CTNNB1 pure protein (0.1 μg/25 μL in PBS) was treated with either DMSO vehicle or covalent ligand at 37° C. for 30 min, and subsequently treated with 0.1 μM IA-Rhodamine (Setareh Biotech) for 1 h at RT in the dark. The reaction was stopped by addition of 4×reducing Laemmli SDS sample loading buffer (Alfa Aesar). After boiling at 95° C. for 5 min, the samples were separated on precast 4-20% Criterion TGX gels (Bio-Rad) and were analyzed by in-gel fluorescence using a ChemiDoc MP (Bio-Rad).

molecule	target-or-system	binding to CTNNB1 by gel-based ABPP
COc1ccc(C(F)(F)F)cc1C1CCCN1C(=O)/C=C/C(=O)c1ccccc1 (stereo not drawn) [NF765]	UniProt P35222	improved CTNNB1 binding
COc1ccc(C(F)(F)F)cc1C1CCCN1C(=O)CCl (stereo not drawn) [NF740]	UniProt P35222	tolerated
COc1ccc(C(F)(F)F)c(C2CCCN2C(=O)CCl)c1 (stereo not drawn) [NF741]	UniProt P35222	tolerated
COc1ccc(C(F)(F)F)c(C2CCCN2C(=O)/C=C/C(=O)c2ccccc2)c1 (stereo not drawn) [NF764]	UniProt P35222	improved CTNNB1 binding
